Reference for the values: patent US8058306B2

test: Plasma kinetics in rat following intravenous and oral administration; format: in vivo, Sprague Dawley rats; details: male, Sprague Dawley, rat, plasma, iv, 10 mg/kg, intravenous 10 mg/kg, male rats, Median; read-out: CL (converted)
recorded endpoint: clearance (mL/min/kg)
Just the number in mL/min/kg, nothing appended.

Below, 2 molecules whose answers are already recorded.
{"columns": ["molecule", "measured"],
 "data": [
  ["N=C(N)NN=CC=Cc1cccn1-c1ccc(Cl)cc1 [Compound 1, acetate]", 45.1],
  ["N=C(N)NN=CC=Cc1cccn1-c1ccccc1[N+](=O)[O-] [Compound 2, acetate]", 90.5]
]}

From here, focus on the item given below.
Req: Could you share which clearance value was measured for N=C(N)NN=CC=Cc1cccn1-c1ccccc1Br [Compound 3, acetate] ?
Resp: 68.2

----------
assay: Plasma kinetics in rat following intravenous and oral administration; assay type: in vivo, Sprague Dawley rats; details: male, Sprague Dawley, rat, plasma, iv, 10 mg/kg, intravenous 10 mg/kg, male rats, Arithmetic Mean; read-out: C0
recorded endpoint: C0 (ng/mL)
Answer format: numeric, ng/mL implied, no suffix.

{"columns": ["molecule", "measured"],
 "data": [
  ["N=C(N)NN=CC=Cc1cccn1-c1ccccc1Br [Compound 3, acetate]", 6630]
]}

Req: Can you look up the measured C0 of N=C(N)NN=CC=Cc1cccn1-c1ccc(Cl)cc1 [Compound 1, acetate] for me?
Resp: 4210

Req: Please answer likewise for N=C(N)NN=CC=Cc1cccn1-c1ccccc1[N+](=O)[O-] [Compound 2, acetate]
Resp: 3470

----------
Experiment: Plasma kinetics in rat following intravenous and oral administration
Assay type: in vivo, Sprague Dawley rats
Settings: male, Sprague Dawley, rat, plasma, po, 10 mg/kg, oral 10 mg/kg, male rats, Geometric mean; read-out: tmax
Description: This study determined the intravenous pharmacokinetics and oral bioavailability of compound 1 of the invention (see FIG. 1A, structure no. 1), compound 2 of the invention (see FIG. 1D, structure no. 19) and compound 3 of the invention (see FIG. 1I, structure no. 53) following administration to Sprague Dawley rats at a dose level of 10 mg/kg. […]
The entries below are paired with their reported Tmax.
Lab book: enter the figure in h, no units written.

{"columns": ["compound", "recorded endpoint", "unit abbreviation", "measured"],
 "data": [
  ["N=C(N)NN=CC=Cc1cccn1-c1ccccc1Br [Compound 3, acetate]", "Tmax", "h", 4.59],
  ["N=C(N)NN=CC=Cc1cccn1-c1ccccc1[N+](=O)[O-] [Compound 2, acetate]", "Tmax", "h", 1.16]
]}

Req: Form field: reported Tmax of N=C(N)NN=CC=Cc1cccn1-c1ccc(Cl)cc1 [Compound 1, acetate]
Resp: 6.34

----------
assay: Plasma kinetics in rat following intravenous and oral administration; assay type: in vivo, Sprague Dawley rats; conditions: male, Sprague Dawley, rat, plasma, po, 10 mg/kg, single oral 10 mg/kg, male rats, 24 h, individual animals; LLOQ 2.50; read-out: Sample Concentration in plasma
recorded endpoint: concentration at 24 h

Req: Sample N=C(N)NN=CC=Cc1cccn1-c1ccc(Cl)cc1 [Compound 1, acetate] — what was its concentration at 24 h?
Resp: 5.35 ng/mL

----------
assay: Plasma kinetics in rat following intravenous and oral administration; format: in vivo, Sprague Dawley rats; conditions: male, Sprague Dawley, rat, plasma, po, 10 mg/kg, single oral 10 mg/kg, male rats, 6 h, mean of 3; read-out: Mean Concentration in plasma
recorded endpoint: concentration at 6 h
Please format your answer as a value with the unit trailing.

Before answering, review these 2 worked examples.
{"columns": ["molecule", "recorded endpoint", "measured"],
 "data": [
  ["N=C(N)NN=CC=Cc1cccn1-c1ccccc1Br [Compound 3, acetate]", "concentration at 6 h", "80.1 ng/mL"],
  ["N=C(N)NN=CC=Cc1cccn1-c1ccc(Cl)cc1 [Compound 1, acetate]", "concentration at 6 h", "86.5 ng/mL"]
]}

Req: Given the entry N=C(N)NN=CC=Cc1cccn1-c1ccccc1[N+](=O)[O-] [Compound 2, acetate] , report its measured concentration at 6 h.
Resp: 3.81 ng/mL
